Reference source: patent US20260242478A1

Recorded phage binding ELISA signal by entry
Target: T1, PSMA Fab
T1 construct: Biotinylated and captured on neutravidin coated plates in the phage ELISA; also called 006 PSMA Fab; Anti-PSMA Fab
Experiment: phage ELISA; biotinylated PSMA Fab on neutravidin plate, clonal phage supernatant, anti-M13 HRP; no PSMA antigen
Where no end group is shown, it is not given here.

BINDER	phage binding ELISA signal
LTNWCTPQWMCLGF (Peptide-180 library clone, tested as clonal phage (peptide fused to pIII)) [Phage-2423]	1.33
EIKWCTPPWMCTIG (Peptide-180 library clone, tested as clonal phage (peptide fused to pIII)) [Phage-2430]	1.32
GEKWCIPEWMCVTT (Peptide-180 library clone, tested as clonal phage (peptide fused to pIII)) [Phage-2429]	1.32
EYKWCVPIWMCAYD (cysteine pairing not given here; also: displayed as fusion to phage pIII, Peptide-180 library clone, tested as clonal phage (peptide fused to pIII)) [Phage-2427]	1.33
VLKWCTPPWMCWDI (Peptide-180 library clone, tested as clonal phage (peptide fused to pIII)) [Phage-2431]	1.32
ADRLCIPPWMCEMK (Peptide-180 library clone, tested as clonal phage (peptide fused to pIII)) [Phage-2428]	1.33
DENWCKPLWMCEGF (Peptide-180 library clone, tested as clonal phage (peptide fused to pIII)) [Phage-2425]	1.33
GINWCTPSWMCTGF (Peptide-180 library clone, tested as clonal phage (peptide fused to pIII)) [Phage-2435]	1.31
EERWCIPEWMCSRI (Peptide-180 library clone, tested as clonal phage (peptide fused to pIII)) [Phage-2434]	1.32
LVNWCTPPWMCWHD (Peptide-180 library clone, tested as clonal phage (peptide fused to pIII)) [Phage-2424]	1.33
GDNWCKPAWMCRDM (Peptide-180 library clone, tested as clonal phage (peptide fused to pIII)) [Phage-2433]	1.32
EFKWCIPKWMCMVD (Peptide-180 library clone, tested as clonal phage (peptide fused to pIII)) [Phage-2421]	1.33
